Target: T1, recombinant human IGSF8 extracellular domain tagged by a human Fc region (IGSF8-hFc) (human, UniProt Q969P0 28-579, biotin label in Examples 17, 18 and 28 (site not given))
T1 construct: also called IGSF8-Fc fusion protein; IGSF8-hFc-biotin; not shown: human Fc region
T1 sequence: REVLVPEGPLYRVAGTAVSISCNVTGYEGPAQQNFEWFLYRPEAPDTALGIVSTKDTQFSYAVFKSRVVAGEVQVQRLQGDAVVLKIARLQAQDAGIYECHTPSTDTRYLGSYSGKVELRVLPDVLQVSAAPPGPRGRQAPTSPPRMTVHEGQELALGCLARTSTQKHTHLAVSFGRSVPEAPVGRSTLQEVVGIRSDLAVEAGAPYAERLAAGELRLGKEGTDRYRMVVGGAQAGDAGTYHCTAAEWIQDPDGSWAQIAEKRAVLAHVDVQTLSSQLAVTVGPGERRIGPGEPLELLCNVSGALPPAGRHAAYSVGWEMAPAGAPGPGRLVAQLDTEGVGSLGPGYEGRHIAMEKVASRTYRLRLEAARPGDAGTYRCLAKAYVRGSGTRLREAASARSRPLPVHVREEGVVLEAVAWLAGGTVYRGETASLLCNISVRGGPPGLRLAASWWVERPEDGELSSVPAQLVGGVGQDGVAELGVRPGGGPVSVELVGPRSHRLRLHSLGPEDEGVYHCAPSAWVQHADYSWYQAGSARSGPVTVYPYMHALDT
Protocol: SPR, Ab captured
pKd: −log10 of the molar value.
Decide by pKd: equal to or exceeding 8 means Condition met, less means Condition not met.

Worked examples, 5 binders total:
[[record]]
binder = "L2VL-I53S (antibody, V domains shown) VH: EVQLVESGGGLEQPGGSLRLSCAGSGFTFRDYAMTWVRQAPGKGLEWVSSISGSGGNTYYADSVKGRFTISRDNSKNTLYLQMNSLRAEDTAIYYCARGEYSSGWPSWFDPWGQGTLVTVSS VL: EIVLTQSPSSLSASVGDRVTISCRASRTVGTFLNWYQQRPGKPPQALILGVSSLEGGVSSRFSGAGSGTEFSLTISSLQPEDIGTYYCQQSHDVPRTFGQGTKVDLR"
group = "Condition not met"

[[record]]
binder = "L2-09 (antibody, V domains shown) VH: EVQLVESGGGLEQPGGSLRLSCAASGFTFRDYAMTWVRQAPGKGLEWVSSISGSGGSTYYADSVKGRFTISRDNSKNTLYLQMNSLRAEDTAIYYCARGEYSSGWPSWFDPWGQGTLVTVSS VL: DIQMTQSPSSLSASVGDRVTITCRASRTVGTFLNWYQQKPGKAPKALILHTSILEGGVPSRFSGSGSGTDFTLTISSLQPEDIGTYYCQQSHDVPRTFGQGTKVEIK"
group = "Condition met"

[[record]]
binder = "L2VL-S52V (antibody, V domains shown) VH: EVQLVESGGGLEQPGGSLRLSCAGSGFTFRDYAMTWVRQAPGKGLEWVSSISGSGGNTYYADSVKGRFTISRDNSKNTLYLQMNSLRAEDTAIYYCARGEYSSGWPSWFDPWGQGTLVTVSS VL: EIVLTQSPSSLSASVGDRVTISCRASRTVGTFLNWYQQRPGKPPQALILGVVILEGGVSSRFSGAGSGTEFSLTISSLQPEDIGTYYCQQSHDVPRTFGQGTKVDLR"
group = "Condition not met"

[[record]]
binder = "L1-12 (antibody, V domains shown) VH: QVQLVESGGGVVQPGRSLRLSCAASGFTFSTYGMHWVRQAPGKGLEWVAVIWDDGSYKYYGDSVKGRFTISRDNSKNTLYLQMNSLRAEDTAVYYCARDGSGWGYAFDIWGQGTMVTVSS VL: DIQLTQSPSSLSASVGDRVTITCQASQDISEYLNWYQHKPGKAPNPLVFGADNLETGVPPRFSATGSGTDFSLTITSLQPEDFATYYCQQYDSFPYTFGQGTRLDIK"
group = "Condition met"

[[record]]
binder = "L1-20 (antibody, IgG1, V domains shown, also called L1-20-IgG1) VH: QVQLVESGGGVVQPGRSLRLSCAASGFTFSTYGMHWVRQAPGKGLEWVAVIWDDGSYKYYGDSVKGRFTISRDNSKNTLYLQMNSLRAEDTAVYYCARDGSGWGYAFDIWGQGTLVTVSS VL: DIQLTQSPSSLSASVGDRVTITCQASQDIEWWLNWYQQKPGKAPKLLIYGSPNLETGVPSRFSGSGSGTDFTFTISSLQPEDIATYYCQQYDSFPYTFGQGTKVEIK"
group = "Condition met"


Request: Please indicate if the recorded pKd for L1-09 (antibody, V domains shown) VH: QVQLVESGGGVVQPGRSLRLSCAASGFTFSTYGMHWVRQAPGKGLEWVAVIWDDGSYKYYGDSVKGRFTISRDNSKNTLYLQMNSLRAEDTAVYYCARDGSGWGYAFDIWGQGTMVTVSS VL: DIQLTQSPSSLSASVGDRVTITCQASQDISEYLNWYQHKPGKAPNPLVFARDNLETGVPPRFSATGSGTDFSLTITSLQPEDFATYYCQQYDSFPYTFGQGTRLDIK meets or exceeds 8.
Result: Condition met

Request: Has L1-02 (antibody, V domains shown) VH: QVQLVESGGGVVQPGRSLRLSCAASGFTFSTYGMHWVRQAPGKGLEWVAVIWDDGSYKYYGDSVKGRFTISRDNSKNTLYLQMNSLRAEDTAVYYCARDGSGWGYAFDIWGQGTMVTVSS VL: DIQLTQSPSSLSASVGDRVTITCQASQDISKPLNWYQHKPGKAPNPLVFDAANLETGVPPRFSATGSGTDFSLTITSLQPEDFATYYCQQYDSFPYTFGQGTRLDIK a recorded pKd greater than or equal to 8?
Result: Condition met

Request: Answer whether pKd of L1-13 (antibody, V domains shown) VH: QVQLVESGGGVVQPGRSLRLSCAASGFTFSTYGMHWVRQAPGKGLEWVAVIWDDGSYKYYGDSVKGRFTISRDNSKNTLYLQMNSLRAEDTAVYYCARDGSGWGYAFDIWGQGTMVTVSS VL: DIQLTQSPSSLSASVGDRVTITCQASQDISEYLNWYQHKPGKAPNPLVFDAPNLETGVPPRFSATGSGTDFSLTITSLQPEDFATYYCQQYDSFPYTFGQGTRLDIK is greater than or equal to 8.
Result: Condition met
